Target: T1, guinea pig IGF-I receptor (guinea pig, UniProt P08069 31-1367 (human entry))
T1 construct: Whole entry as named; expressed on HEK293T cells; also called IGF-I receptor of guinea pig; XP_003475316
T1 sequence (P08069 other isoform, or with tags, fused parts or gaps limits assumed): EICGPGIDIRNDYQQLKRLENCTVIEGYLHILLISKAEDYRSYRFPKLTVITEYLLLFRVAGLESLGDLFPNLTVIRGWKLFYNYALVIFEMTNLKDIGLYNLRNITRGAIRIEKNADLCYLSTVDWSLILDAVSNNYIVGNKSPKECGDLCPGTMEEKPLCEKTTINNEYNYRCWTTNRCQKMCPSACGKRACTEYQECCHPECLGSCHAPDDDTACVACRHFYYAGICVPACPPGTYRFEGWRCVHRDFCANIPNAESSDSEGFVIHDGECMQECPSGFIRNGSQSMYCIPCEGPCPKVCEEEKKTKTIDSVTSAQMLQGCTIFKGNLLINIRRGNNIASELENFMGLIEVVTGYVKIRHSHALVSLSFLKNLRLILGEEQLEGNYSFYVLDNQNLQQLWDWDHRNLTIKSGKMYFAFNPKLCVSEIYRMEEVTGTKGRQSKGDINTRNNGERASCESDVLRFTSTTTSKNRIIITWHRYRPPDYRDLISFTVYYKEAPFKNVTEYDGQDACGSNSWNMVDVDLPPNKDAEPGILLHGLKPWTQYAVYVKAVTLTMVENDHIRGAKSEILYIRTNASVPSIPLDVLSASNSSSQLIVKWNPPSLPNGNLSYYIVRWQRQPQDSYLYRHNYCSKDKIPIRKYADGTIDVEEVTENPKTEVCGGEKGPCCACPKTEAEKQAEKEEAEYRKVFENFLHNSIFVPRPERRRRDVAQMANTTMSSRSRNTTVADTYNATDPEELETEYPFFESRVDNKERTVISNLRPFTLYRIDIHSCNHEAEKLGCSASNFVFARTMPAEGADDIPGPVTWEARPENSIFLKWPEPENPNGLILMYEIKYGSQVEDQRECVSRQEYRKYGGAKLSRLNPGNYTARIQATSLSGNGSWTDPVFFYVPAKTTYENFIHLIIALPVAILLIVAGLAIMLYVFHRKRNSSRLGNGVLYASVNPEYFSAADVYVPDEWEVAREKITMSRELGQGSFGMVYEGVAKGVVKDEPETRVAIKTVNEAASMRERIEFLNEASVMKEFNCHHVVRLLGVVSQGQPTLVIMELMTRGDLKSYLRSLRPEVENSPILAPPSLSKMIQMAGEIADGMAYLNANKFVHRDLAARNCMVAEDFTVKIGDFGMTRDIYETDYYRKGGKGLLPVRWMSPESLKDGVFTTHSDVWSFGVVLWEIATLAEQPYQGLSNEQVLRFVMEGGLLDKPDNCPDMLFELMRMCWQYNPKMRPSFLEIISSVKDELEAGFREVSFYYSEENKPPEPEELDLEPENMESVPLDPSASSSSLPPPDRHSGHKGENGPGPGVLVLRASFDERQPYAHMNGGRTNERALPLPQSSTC
Experiment: cell-based ELISA, 2 nM antibody on HEK293T cells expressing the receptor, A450-A650
measured_parameter: Avidity (relative to control HEK293T cells = 1)

Would you kindly share the measured Avidity (relative to control HEK293T cells = 1) for anti-IGF-I receptor humanized antibody R11-16E (antibody, human IgG4, V domains shown, also called R11-16E antibody; R11-16VH + R11-16VL-C36F) VH: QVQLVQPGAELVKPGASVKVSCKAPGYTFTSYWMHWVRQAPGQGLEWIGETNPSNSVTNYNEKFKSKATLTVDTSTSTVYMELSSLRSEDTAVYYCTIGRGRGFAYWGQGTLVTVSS VL: DIQMTQSPSSLSASVGDRVTITCRASQNINFWLSWFQQKPGKAPKLLIYKASNLHTGVPSRFSGSGSGTDFTFTISSLQPEDIATYYCLQGQSYPYTFGQGTKLEIK ?
3.4 fold of control cells

Would you kindly share the measured Avidity (relative to control HEK293T cells = 1) for anti-IGF-I receptor humanized antibody R11-16C (antibody, human IgG4, V domains shown, also called R11-16C antibody; R11-16VH + R11-16VL-C36A) VH: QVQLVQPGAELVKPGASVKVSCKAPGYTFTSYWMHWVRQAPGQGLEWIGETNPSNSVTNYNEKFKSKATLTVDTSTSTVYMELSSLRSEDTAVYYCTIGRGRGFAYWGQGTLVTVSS VL: DIQMTQSPSSLSASVGDRVTITCRASQNINFWLSWAQQKPGKAPKLLIYKASNLHTGVPSRFSGSGSGTDFTFTISSLQPEDIATYYCLQGQSYPYTFGQGTKLEIK ?
3.3 fold of control cells

Would you kindly share the measured Avidity (relative to control HEK293T cells = 1) for anti-IGF-I receptor humanized antibody R11-16B (antibody, human IgG4, V domains shown, Heavy chain constant region: human IgG4 S228P variant; Expressed in Expi293, protein A purified; also called R11-16B antibody; R11-16VH + R11-16VL-C36Y) VH: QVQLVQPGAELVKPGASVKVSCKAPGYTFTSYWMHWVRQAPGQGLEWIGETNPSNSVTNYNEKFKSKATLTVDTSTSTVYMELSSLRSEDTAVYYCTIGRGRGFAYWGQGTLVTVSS VL: DIQMTQSPSSLSASVGDRVTITCRASQNINFWLSWYQQKPGKAPKLLIYKASNLHTGVPSRFSGSGSGTDFTFTISSLQPEDIATYYCLQGQSYPYTFGQGTKLEIK ?
3.3 fold of control cells

Would you kindly share the measured Avidity (relative to control HEK293T cells = 1) for anti-IGF-I receptor humanized antibody R11-16D (antibody, human IgG4, V domains shown, also called R11-16D antibody; R11-16VH + R11-16VL-C36S) VH: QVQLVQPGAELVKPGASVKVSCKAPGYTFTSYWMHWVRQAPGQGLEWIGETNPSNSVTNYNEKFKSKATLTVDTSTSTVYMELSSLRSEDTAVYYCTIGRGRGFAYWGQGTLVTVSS VL: DIQMTQSPSSLSASVGDRVTITCRASQNINFWLSWSQQKPGKAPKLLIYKASNLHTGVPSRFSGSGSGTDFTFTISSLQPEDIATYYCLQGQSYPYTFGQGTKLEIK ?
3.3 fold of control cells
